Biological target: Leucine aminopeptidase (Plasmodium falciparum 3D7, UniProt Q8IL11)
Sequence (Q8IL11 whole entry): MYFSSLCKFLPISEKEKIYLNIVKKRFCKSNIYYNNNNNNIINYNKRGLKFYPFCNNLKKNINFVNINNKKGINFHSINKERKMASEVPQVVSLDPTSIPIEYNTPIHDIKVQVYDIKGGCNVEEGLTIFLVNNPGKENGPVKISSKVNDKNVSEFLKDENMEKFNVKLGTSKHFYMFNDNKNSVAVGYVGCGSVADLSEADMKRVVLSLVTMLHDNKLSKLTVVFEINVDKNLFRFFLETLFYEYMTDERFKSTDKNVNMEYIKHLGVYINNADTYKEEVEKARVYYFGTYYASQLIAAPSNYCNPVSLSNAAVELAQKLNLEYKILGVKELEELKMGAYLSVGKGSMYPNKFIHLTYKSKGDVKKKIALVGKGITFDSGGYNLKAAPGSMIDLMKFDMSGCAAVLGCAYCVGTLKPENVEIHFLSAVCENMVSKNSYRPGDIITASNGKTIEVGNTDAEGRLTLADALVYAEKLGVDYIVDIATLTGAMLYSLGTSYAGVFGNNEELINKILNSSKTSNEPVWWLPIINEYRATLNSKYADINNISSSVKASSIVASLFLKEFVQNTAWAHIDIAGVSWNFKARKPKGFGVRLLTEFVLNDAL
Test: P. falciparum M17LAP inhibitors, primary screen, biochemical, fluorogenic H-Leu-NHMec substrate, 1536-well (AID 1619)
Format: functional
Active and inactive are the calls of the source. No rule for the calls is given here.
parameter: IC50

Before answering, review these 5 worked examples.
| compound | IC50 |
| --- | --- |
| CC1=C(C)C(=O)C(CCCCC#CCCCC#CCO)=C(C)C1=O [DOCEBENONE] | 53.4 µM (active) |
| O=C(Nc1sc2c(c1C(=O)O)CCCCC2)c1ccccc1F | 71 µM (active) |
| CCCCc1ccc(NC(=O)CSCc2cc(=O)[nH][nH]2)cc1 | 12.4 µM (active) |
| Cc1ccc(NC(=O)CSCc2nc(O)c3nnn(Cc4ccc(F)cc4)c3n2)c(C)c1 | 2.06 µM (active) |
| CCN(CC)S(=O)(=O)N1CCC(C(=O)NCC2COc3ccccc3O2)CC1 (stereo unspecified) | 11.3 µM (active) |

Would you kindly look at the next entry?
Q: What value of measured IC50 is listed for CC(C)c1ccc(NC(=O)C2CCCCC2C(=O)O)cc1 (stereo unspecified) ?
A: 3.51 µM (active)

Attribution: ChEMBL document CHEMBL1201862
